The values you see were collected from the supplement of paper PMC7017272.

System: UT-SCC-73
Assay: drug sensitivity score (DSS); higher = more sensitive; extreme values may be limits of the assay
Details: culture condition: embedded in Matrigel; treatment time: 3 days
What drug sensitivity score was measured for each of the following?
Give bare numbers, in DSS.

Hey, can you go through the list below and give me drug sensitivity score for every item?
1. CC(=O)Nc1cccc(-n2c(=O)n(C3CC3)c(=O)c3c(Nc4ccc(I)cc4F)n(C)c(=O)c(C)c32)c1 [Trametinib]
2. C#Cc1cccc(Nc2ncnc3cc(OCCOC)c(OCCOC)cc23)c1 [Erlotinib]
3. CO[C@H]1C[C@@H]2CC[C@@H](C)[C@@](O)(O2)C(=O)C(=O)N2CCCC[C@H]2C(=O)O[C@H]([C@H](C)C[C@@H]2CC[C@@H](OCCO)[C@H](OC)C2)CC(=O)[C@H](C)/C=C(\C)[C@@H](O)[C@@H](OC)C(=O)[C@H](C)C[C@H](C)/C=C/C=C/C=C/1C [Everolimus]
4. Cn1cnc2c(F)c(Nc3ccc(Br)cc3F)c(C(=O)NOCCO)cc21 [Binimetinib]
5. COc1cc2ncnc(Nc3ccc(F)c(Cl)c3)c2cc1OCCCN1CCOCC1 [Gefitinib]

1. 19.8
2. 0.3
3. 2.37
4. 14.6
5. 0.0667

Output measured drug sensitivity score for this item: COc1cc(F)c(F)c(Nc2ccc(I)cc2F)c1NS(=O)(=O)C1(C[C@H](O)CO)CC1 [Refametinib]
25

----------
System: UT-SCC-73
Experiment: relative IC50 (midpoint of the fitted curve; maximal inhibition may be below 50%); higher = less potent
Details: culture condition: on top of Matrigel; treatment time: 3 days
Respond with fulfilled for relative IC50 values of 30 nM and above, not fulfilled for values below.

Would you please look over these solved cases?
Could you verify whether the entry COc1cc(F)c(F)c(Nc2ccc(I)cc2F)c1NS(=O)(=O)C1(C[C@H](O)CO)CC1 [Refametinib] shows relative IC50 of no less than 30 nM?
fulfilled

In plain terms: is recorded relative IC50 at least 30 nM for C=CC(=O)Nc1cc2c(Nc3ccc(F)c(Cl)c3)ncnc2cc1OCCCN1CCOCC1 [Canertinib] ?
fulfilled

Check the entry Cn1cnc2c(F)c(Nc3ccc(Br)cc3F)c(C(=O)NOCCO)cc21 [Binimetinib] : does relative IC50 equal or exceed 30 nM?
not fulfilled

Is reported relative IC50 greater than or equal to 30 nM here: Cn1cnc2c(F)c(Nc3ccc(Br)cc3Cl)c(C(=O)NOCCO)cc21 [Selumetinib]
fulfilled

Decide: relative IC50 of CO[C@H]1C[C@@H]2CC[C@@H](C)[C@@](O)(O2)C(=O)C(=O)N2CCCC[C@H]2C(=O)O[C@H]([C@H](C)C[C@@H]2CC[C@@H](OCCO)[C@H](OC)C2)CC(=O)[C@H](C)/C=C(\C)[C@@H](O)[C@@H](OC)C(=O)[C@H](C)C[C@H](C)/C=C/C=C/C=C/1C [Everolimus] >= 30 nM?
not fulfilled

Test whether the molecule O=C(NC[C@H](O)CO)c1ccncc1Nc1ccc(I)cc1F [Pimasertib] records relative IC50 of 30 nM or higher.
not fulfilled

Entry Cn1c(=O)c(F)c(Nc2ccc(I)cc2F)c2c(=O)n(C[C@@H](O)CO)cnc21 [TAK-733] : is its relative IC50 no less than 30 nM?
not fulfilled

In plain terms: is recorded relative IC50 at least 30 nM for COc1ncc(-c2ccc3nccc(-c4ccnnc4)c3c2)cc1NS(=O)(=O)c1ccc(F)cc1F [Omipalisib] ?
not fulfilled

Is it the case that CO[C@H]1C[C@@H]2CC[C@@H](C)[C@@](O)(O2)C(=O)C(=O)N2CCCC[C@H]2C(=O)O[C@H]([C@H](C)C[C@@H]2CC[C@@H](OC(=O)C(C)(CO)CO)[C@H](OC)C2)CC(=O)[C@H](C)/C=C(\C)[C@@H](O)[C@@H](OC)C(=O)[C@H](C)C[C@H](C)/C=C/C=C/C=C/1C [Temsirolimus] has relative IC50 reaching or exceeding 30 nM?
not fulfilled

Is reported relative IC50 greater than or equal to 30 nM here: Cc1c(CN2CCN(C(=O)[C@H](C)O)CC2)sc2c(N3CCOCC3)nc(-c3cnc(N)nc3)nc12 [Apitolisib]
fulfilled

New cases:
Would you say CO[C@H]1C[C@@H]2CC[C@@H](C)[C@@](O)(O2)C(=O)C(=O)N2CCCC[C@H]2C(=O)O[C@H]([C@H](C)C[C@@H]2CC[C@@H](OP(C)(C)=O)[C@H](OC)C2)CC(=O)[C@H](C)/C=C(\C)[C@@H](O)[C@@H](OC)C(=O)[C@H](C)C[C@H](C)/C=C/C=C/C=C/1C [Ridaforolimus] shows relative IC50 at minimum 30 nM?
not fulfilled
